# TARGET_SYSTEM: T1, AFP158/HLA-A*02:01 complex (human)
# T1 construct: flowed over the chip in SPR; also called AFP158 pro
# ASSAY_DETAILS: SPR, KD ratio to AS170036 VL1VH1;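 further: crude scFv captured on a sensor chip, peptide–HLA complex passed over at several concentrations, association then buffer dissociation, KD derived from on- and off-rates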
Measured Affinity increase values are reported for all entries that follow.
Please answer using a numeric value trailed by its unit.

Inquiry: Could you share which Affinity increase value was measured for LE32A (scFv, AS170036 VL1VH1 scFv mutein) scFv: QSALTQPRSVSGSPGQSVTISCAGTSSDVGSANYVSWYQQHPGKAPKLMIYQVNKRASGVPDRFSGSKSGNTASLTISGLQAEDEADYYCASYRSSDHNIVFGGGTKLTVLGGGGSGGGGSGGGGSEVQLVESGGGLVQPGGSLRLSCAASGFTFSSYAMSWVRQAPGKGLEWVSTINSGTGSPYYADSVKGRFTISRDNSKNTLYLQMNSLRAEDTAVYYCAKNFFDGSWFLGPPAMDYWGQGTLVTVSSHHHHHH ?
Reply text: 0.3 fold

Inquiry: Try LH98Y (scFv, AS170036 VL1VH1 scFv mutein) scFv: QSALTQPRSVSGSPGQSVTISCAGTSSDVGSENYVSWYQQHPGKAPKLMIYQVNKRASGVPDRFSGSKSGNTASLTISGLQAEDEADYYCASYRSSDYNIVFGGGTKLTVLGGGGSGGGGSGGGGSEVQLVESGGGLVQPGGSLRLSCAASGFTFSSYAMSWVRQAPGKGLEWVSTINSGTGSPYYADSVKGRFTISRDNSKNTLYLQMNSLRAEDTAVYYCAKNFFDGSWFLGPPAMDYWGQGTLVTVSSHHHHHH next.
Reply text: 1.6 fold

Inquiry: Try LH98V (scFv, AS170036 VL1VH1 scFv mutein; also called AS170036 VL1VH1-VLH98V) scFv: QSALTQPRSVSGSPGQSVTISCAGTSSDVGSENYVSWYQQHPGKAPKLMIYQVNKRASGVPDRFSGSKSGNTASLTISGLQAEDEADYYCASYRSSDVNIVFGGGTKLTVLGGGGSGGGGSGGGGSEVQLVESGGGLVQPGGSLRLSCAASGFTFSSYAMSWVRQAPGKGLEWVSTINSGTGSPYYADSVKGRFTISRDNSKNTLYLQMNSLRAEDTAVYYCAKNFFDGSWFLGPPAMDYWGQGTLVTVSSHHHHHH next.
Reply text: 3.2 fold
